Cited source: patent US20260001871A1

# TARGET_ENTITY: human MRGPRD (Homo sapiens)
# Sequence (Q8TDS7 whole entry): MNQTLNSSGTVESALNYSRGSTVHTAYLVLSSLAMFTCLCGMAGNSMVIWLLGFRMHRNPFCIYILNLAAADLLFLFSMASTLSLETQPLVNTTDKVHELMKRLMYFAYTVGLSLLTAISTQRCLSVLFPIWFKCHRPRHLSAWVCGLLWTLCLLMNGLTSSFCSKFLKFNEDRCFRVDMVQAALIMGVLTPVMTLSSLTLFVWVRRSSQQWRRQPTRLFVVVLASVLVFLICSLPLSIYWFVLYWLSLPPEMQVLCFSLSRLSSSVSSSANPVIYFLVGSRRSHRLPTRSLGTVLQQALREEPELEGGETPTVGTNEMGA
# ASSAY_REMARKS: MRGPRD antagonist activity, IP-One HTRF assay in CHO cells stably expressing human MRGPRD (versus 100 μM β-Alanine agonist)
# Method: Chinese Hamster Ovary (CHO) cells stably expressing human MRGPRD (Eurofins, San Diego CA) were plated in a 384-well plate at 20,000 cells per well in 12 μL of Optimem (Fisher Scientific 11-058-021). Plates were kept in the incubator at 37° C. overnight. […] Assay plates were read on either a Molecular Devices SpectraMax iD5 plate reader or a BMG ClarioStar plate reader. The HTRF ratio was calculated form the raw data and graphed using GraphPad Prism to calculate IC50 values. […]
READOUT_TYPE: IC50

Worked set:
>>> assay_value("Cc1cc(NC(=O)c2nnn(-c3ccc(-c4ccccc4)c(F)c3)c2C2CC2)ccn1 [Compound 7-205]")
"1000 to 3000 nM"
>>> assay_value("COc1ccccc1-c1ccc(-n2nnc(C(=O)Nc3ccncc3)c2C2CC2)cc1C [Compound 7-261]")
"500 to 1000 nM"

Please provide the recorded IC50 for CCc1ccc(C2(NC(=O)c3nnn(-c4ccc(-c5c(C)nn(-c6ccccc6)c5C)cc4)c3C3CC3)CC2)cn1 [Compound 9-20] , tested on human MRGPRD (Homo sapiens). 100 to 500 nM

What do we get for CC(=O)c1cccc(-n2nnc(C(=O)Nc3ccncc3)c2C2CC2)c1 [Compound 2-9] ? 1000 to 3000 nM
